target.entity: UniProtKB P19327
Sequence (P19327 whole entry): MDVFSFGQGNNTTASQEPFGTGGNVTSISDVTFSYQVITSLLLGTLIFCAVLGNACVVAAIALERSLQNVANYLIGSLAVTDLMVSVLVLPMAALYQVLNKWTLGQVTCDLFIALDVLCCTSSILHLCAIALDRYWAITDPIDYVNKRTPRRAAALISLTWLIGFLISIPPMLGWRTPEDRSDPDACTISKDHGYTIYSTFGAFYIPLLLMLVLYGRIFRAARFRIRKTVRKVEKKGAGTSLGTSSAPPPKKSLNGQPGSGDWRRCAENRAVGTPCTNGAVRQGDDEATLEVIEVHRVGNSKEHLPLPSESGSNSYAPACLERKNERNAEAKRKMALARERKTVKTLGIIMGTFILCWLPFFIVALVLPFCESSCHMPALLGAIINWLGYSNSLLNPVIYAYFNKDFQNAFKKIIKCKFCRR
measurement.kind: Ki (nM)

[11CH3]Oc1ccc2c(c1)CCN(CCCc1c[nH]c3ccc(Br)cc13)C2 :: 50
[11CH3]Oc1ccc2c(c1)CCN(CCCc1c[nH]c3ccc(I)cc13)C2 :: 685
[11CH3]Oc1ccc2c(c1)CCN(CCCc1c[nH]c3ccc(F)cc13)C2 :: 54
[11CH3]Oc1cccc2c1CCN(CCCc1c[nH]c3ccc(F)cc13)C2 :: 164
[11CH3]Oc1cccc2c1CCN(CCCc1c[nH]c3ccc(Br)cc13)C2 :: 1990

---

target.entity: Sodium-dependent noradrenaline transporter (Homo sapiens, UniProt P23975)
Sequence (P23975 whole entry): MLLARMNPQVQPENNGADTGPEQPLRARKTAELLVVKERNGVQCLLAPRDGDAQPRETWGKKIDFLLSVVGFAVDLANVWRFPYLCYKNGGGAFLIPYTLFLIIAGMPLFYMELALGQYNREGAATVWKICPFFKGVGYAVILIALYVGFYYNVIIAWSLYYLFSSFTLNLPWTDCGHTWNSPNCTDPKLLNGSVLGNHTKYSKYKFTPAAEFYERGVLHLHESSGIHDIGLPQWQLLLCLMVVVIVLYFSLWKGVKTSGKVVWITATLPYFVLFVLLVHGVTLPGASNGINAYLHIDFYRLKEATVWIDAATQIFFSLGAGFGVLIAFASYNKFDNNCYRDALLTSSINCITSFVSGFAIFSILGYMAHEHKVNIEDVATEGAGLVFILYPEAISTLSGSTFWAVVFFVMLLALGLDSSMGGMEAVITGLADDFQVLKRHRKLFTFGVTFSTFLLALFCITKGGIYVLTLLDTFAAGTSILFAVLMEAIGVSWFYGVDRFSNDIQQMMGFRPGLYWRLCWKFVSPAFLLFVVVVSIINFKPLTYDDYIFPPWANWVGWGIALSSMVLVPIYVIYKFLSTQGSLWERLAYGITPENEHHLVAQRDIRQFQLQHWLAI
protocol.notes: Displacement of [3H]nisoxetine from human NET expressed in HEK293 cells
Type: cell-based
measurement.kind: Ki (µM)

[11CH3]Oc1cccc2c1CCN(CCCc1c[nH]c3ccc(Br)cc13)C2 :: 6.6
[11CH3]Oc1cccc2c1CCN(CCCc1c[nH]c3ccc(I)cc13)C2 :: 1.81
[11CH3]Oc1ccc2c(c1)CCN(CCCc1c[nH]c3ccc(F)cc13)C2 :: 1.68

Reference for the values: ChEMBL document CHEMBL1150402
